Give measured protein stability index for each item. Keep answers brief.
assay: protein stability index of a GFP-peptide fusion (GPS, HEK-293T) (PSI 1-6); higher = more stable; details: treatment: DMSO; c terminus: a fixed tail appended;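 further: 24-mer peptide tiles fused after GFP, lentivirally expressed, FACS-sorted into six equal bins by GFP/DsRed ratio, decoded by Illumina sequencing, PSI is the read-weighted mean bin number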

These solved cases illustrate the format of a correct answer.
Input sequence | protein stability index
KESGQEGVDSMAEEGTSDSNTGSE [SMARCE1] | 5.01
LPDLCLCRVFWWLGDRDRSRAALV [FBXO39] | 2.5

Fill in protein stability index for each of the 8 sequences listed.
1. YQQQHEQQKKDLEILHQQNIHQLQ [SASS6]
2. LRRKTPRHKQPTLLMVRASRRSGK [C6orf223]
3. NQNRAYVTLAAHFLGLGAPNCLSM [ZBED1]
4. FFINEAMELKVGDFGLAARLEPLE [PLK2]
5. GMRYAFIGPLETMHLNAEGMLSYC [CRYL1]
6. QHAVQELTKAATSGVGIDGEVLSY [RHOBTB1]
7. VPGEFKQDVTVVGSAGRLLAVGTD [GFOD1]
8. VCAICQINLEGKTFYSKKDRPLCK [PDLIM7]

[4.47, 3.61, 3.07, 2.61, 2.56, 4.5, 4.1, 2.1]

Respectfully, I request protein stability index for each entry included below.
1. APPQGSCGDELPWTLQRRLTRLRT [PLEKHN1]
2. TYTHGLGLHRRPGAGHCSASPGPA
3. KFADNKWSVTGKAEPAMPGRLYVH [TBX5]
4. ACGIVSGKYDSGIPPYSRASLKGY [KCNAB2]
5. GCRLPSISSTTCGRQLEKVPEKRD [SPATS1]
6. LMVHGNERFIQYLASRNTLFNLSN [SNAP91]
7. GPKESLPVIAAPSMWTRPQIKDFK [ACBD3]

3.33
3.42
2.53
2.35
3.98
2.67
3.8

Please look at the items below and tell me protein stability index for each one, in order.
1. GGANDRWVRSVSFSHDGLHVASLA [WSB1]
2. PRGSHSSALERLETKLHLLRQEMV [LURAP1L]
3. RLELERKIESLMDEIEFLKKLHEE [PRPH]
4. MYASSAPPSEPVPSLEDISCNTWP [TBX5]
5. YQSFVQFLQYYYQSGCLYRLRALG [TMEM120A]
6. EGVKRYEQEHAAIQDKLFQVAKRE [CHCHD6]

1. 3.08
2. 2.53
3. 3.32
4. 3.95
5. 2.67
6. 4.84

State recorded protein stability index for all listed sequences.
1. ISESMAACTRSLLGDPPPLLTLPR [HDAC6]
2. LGALKPLPACEFEMGGSEGIVESI [NETO1]
3. EDSKRWSKMDQLAKELTAEKRLEG [CHGA]
4. TQYVRHSSDPFYTPEPDTCHELLG [TPH1]
5. QREEHELVHVMERSLSPSLSSVDM [RAD54B]

1. 2.98
2. 4.28
3. 4.97
4. 3.63
5. 4.62

###

Record form. Attribute: protein stability index. Fill in for each entry.
test: protein stability index of a GFP-peptide fusion (GPS, HEK-293T) (PSI 1-6); higher = more stable; conditions: treatment: DMSO; c terminus: a fixed tail appended

Observe how each entry below is paired with its result.
Input sequence | protein stability index
CESCVDLLFVRGAGNCPECGTPLR [MNAT1] | 4.27
VDSEQLRRDCDALMAGCIQEARER [CDKN1A] | 4.82
IIGDYFSDQDPRVRTAAIKAMLQL [INTS4] | 2.19
GKVIVWDSFTTNKEHAVTMPCTWV [GNB5] | 2.55

Hey, quick one: what's protein stability index for each of these?
1. FDMSRYSSSGYSSAEINQDLNIQL [FAM219A]
2. SGQYRELGGAIDFGAAYVLEQASS [ATL3]

1: 3.06; 2: 3.47

Using the record for NSWMGSQGPMSQRRENYGVPPRRA [RBMY1A1] , report its protein stability index.
4.65
